# system tested: T1, HLA-A*02:01 (human)
# T1 construct: monomers captured on streptavidin plates; also called MHC class I
# measurement notes: UV peptide exchange ELISA
Here the recorded peptide exchange yield is given for each entry.

Example results:
> print(dat)
         binder   measured
1   RVWDISTVSSV  50 to 75%
2    KLYPQLPAEI  50 to 75%
3  GLAPFTEGISFV  50 to 75%
4   SLFIGEKAVLL  50 to 75%
5   FLLAHGLGFLL      ≥ 75%
6     YLYNEGLSV  50 to 75%

Problem: Read the entry YAAPGGLIGV and write its reported peptide exchange yield.
Solution: 20 to 50%

Problem: Read the entry LLLNEEALAQI and write its reported peptide exchange yield.
Solution: 50 to 75%
